- System: YANK2
- Construct: gene STK32B
- condition-info: concentration: 1 μM, replicates: in singlicate; n = 1;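 further: KINOMEscan kinase panel screen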
Kindly state %Inh for each of the entries shown.
The response must be a number in % with no trailing unit.

Ask: Quick one: %Inh for O=C1NC(=O)C(N2CCc3ccccc32)=C1c1cccc(Cl)c1 [SB-408010] ?
Reply: 19

Ask: Try this molecule too: CC(=O)Nc1ccc(COc2ccc(Nc3ccnc4cc(-c5ccccn5)ccc34)cc2)cc1.Cl [GW440148]
Reply: 2

Ask: Try this molecule too: NCC(NC(=O)c1cc(-c2cn[nH]c2)c(-c2ccnc3[nH]ccc23)s1)c1ccccc1.O=C(O)C(F)(F)F.O=C(O)C(F)(F)F (centres unmarked) [GSK1325775]
Reply: 0

Ask: Try this molecule too: N#Cc1ccc(-c2cc(-c3c[nH]nc3-c3ccccn3)ccn2)cc1 [GW693028]
Reply: 7

Ask: Try this molecule too: Cc1nnc(-c2ccc3occ(-c4ccc(C(C)O)cc4)c3c2)o1 (centres unmarked)
Reply: 2

Ask: Try this molecule too: CC(C)(C)n1cnc2c(N)ncnc21 [SKF-97359]
Reply: 0

Ask: Try this molecule too: `CN1c2ccc(CNc3ccc(F)cc3)cc2-c2c(cnn2C)S1(=O)=O`
Reply: 0

Ask: Try this molecule too: CCn1cnc2c(N)ncnc21 [GW345098]
Reply: 0

Ask: Try this molecule too: Fc1ccc(-c2ncn(CCCN3CCOCC3)c2-c2cccnc2)cc1 [SB-211743]
Reply: 0

Ask: Try this molecule too: CCCCCc1nc2c(N)ncnc2n1CCCCC [SKF-97255]
Reply: 12

Ask: Try this molecule too: COC(=O)Nc1nc2cc(Oc3ccc(NC(=O)Nc4cc(F)ccc4F)cc3)ccc2[nH]1.Cl [GW701424]
Reply: 0

Ask: Try this molecule too: `Cc1ccc(C(=O)NCC(N)=O)cc1-n1c(C)cc(OCc2ccc(F)cc2F)c(Br)c1=O`
Reply: 10

Ask: Try this molecule too: O=c1cc(N2CCOCC2)nc2n(Cc3cccc4ccccc34)ccn12 [GSK2333389]
Reply: 0

Ask: Try this molecule too: Nc1nccc(-c2c(-c3ccc(F)cc3)ncn2C2CCN(CC(F)(F)F)CC2)n1 [SB-236560]
Reply: 0

* * *

Kindly state %Inh for each of the entries shown.
- Tested on: CDK7
- condition-info: concentration: 1 μM, replicates: in singlicate; n = 1
The response must be a number in % with no trailing unit.

Ask: State its %Inh on CDK7: COc1ccc(Nc2nccc(N3CCC(NC(=O)Nc4cccc(C(C)=O)c4)C3)n2)cc1 (stereo not drawn)
Reply: 0

Ask: Try this compound too: `O=C(NOCC1CC1)c1ccc(F)c(F)c1Nc1ccc(I)cc1Cl`
Reply: 0

Ask: Try this compound too: `O=c1cc(N2CCOCC2)nc2n(Cc3cccc(Cl)c3Cl)c(C3CC3)nn12`
Reply: 5

Ask: Try this compound too: `COc1ccc(S(=O)(=O)NC2CCN(c3cc(C)nc(Nc4cccc(C#N)c4)n3)CC2)cc1.O=C(O)C(F)(F)F`
Reply: 0

Ask: Try this compound too: `Cn1cc(-c2ccc3c(c2)CCN3C(=O)Cc2ccccc2Cl)c2c(N)ncnc21`
Reply: 1

Ask: Try this compound too: `[2H]C([2H])(c1cccc(C(F)(F)F)c1C)n1ccn2c(=O)nc(N3CCOCC3)cc12`
Reply: 0

Ask: Try this compound too: `O=C(Nc1cccc(-c2nn3ncccc3c2-c2ccnc(Nc3cccc(C(F)(F)F)c3)n2)c1)c1c(F)cccc1F`
Reply: 0

Ask: Try this compound too: `CC(C)(C)n1cnc2c(N)ncnc21`
Reply: 0

Ask: Try this compound too: `CCn1cnc2c(N)ncnc21`
Reply: 20

Ask: Try this compound too: Cc1c(Cn2c(C)nn3c(=O)cc(N4CCOC(C)C4)nc23)cccc1C(F)(F)F (stereo not drawn)
Reply: 0

Ask: Try this compound too: `Cc1ccc(NC(=O)c2ccnc(N3CCN(C)CC3)c2)cc1-c1ccc(C(=O)NCC2CC2)cc1`
Reply: 0

Ask: Try this compound too: `Cn1ccc2ncnc(Oc3ccc(NC(=O)Nc4ccncc4)c(Cl)c3)c21`
Reply: 0

Ask: Try this compound too: `O=C(NCCNc1ccnc(Nc2ccc(F)cc2)n1)c1cc2ccccc2s1`
Reply: 0

Ask: Try this compound too: `Nc1nccc(-c2c(-c3ccc(F)cc3)ncn2C2CCN(CC(F)(F)F)CC2)n1`
Reply: 10

Ask: Try this compound too: `NS(=O)(=O)c1cccc(-c2ccc3ncc(N4CCOCC4)nc3c2)c1`
Reply: 20

Ask: Try this compound too: NCC(NC(=O)c1cc(-c2cn[nH]c2)c(-c2ccnc3[nH]ccc23)s1)c1ccccc1.O=C(O)C(F)(F)F.O=C(O)C(F)(F)F (stereo not drawn)
Reply: 93.7

Ask: Try this compound too: `CC(=O)Nc1ccc(COc2ccc(Nc3ccnc4cc(-c5ccccn5)ccc34)cc2)cc1.Cl`
Reply: 0

Ask: Try this compound too: `O=C(NCCNc1ccnc(Nc2ccc(F)cc2)n1)Nc1ccccc1F`
Reply: 0
